# Test system: Micrococcus lysodeikticus ATTC No. 4698
# assay_notes: Lysozyme activity turbidity assay (optical density drop at 540 nm)
# test_parameters: OD drop assay
measured_metric: Lysozyme activity against Micrococcus lysodeikticus (in words)

[[record]]
molecule = "SEQ ID NO: 300: mature GH24 lysozyme from Metarhizium sp. XZ2431 (protein, listed as Metarhizium sp., mat_peptide (1)..(247), mature GH24 lysozyme from Metarhizium sp; XZ2431) YPVSADSLNCRAEPNTSSAIKTTYKKGEDVKISCQTEGPSINGNTIWDKTQDGCYVADYYVKTGSSGYVTGKCGGSSPPSGSGFCKTVNKAGLDLITKWEGFVSSPRGDPIGLPTVGYGHLCQKKGCAEVKYKFPLTKATALQLLNDDLPKYTGCLGKLLNSKVKLNDNQWAALTSWVFNVGCGNAQSSSLVRRLNNGENPNTVAPSELPKWKMAGGKVLEGLVKRRADEVRLFKVSSSKGAFPKCQ"
recorded_value = "good activity"

[[record]]
molecule = "SEQ ID NO: 291: mature GH24 lysozyme from Trichophaea minuta (protein, listed as Trichophaea minuta, mat_peptide (1)..(245), mature GH24 lysozyme from Trichophaea minuta) YPAKVDLRCRSSPSTSASVVRTYSKGSEIQISCQTTGTSVEGSNVWDKTQHGCYVADYYVKTGHSGIFTTKCGSSSGGGSCKPPPINAATVALIKEFEGFVAKPAPDPIGLPTVGYGHLCKTKGCKEVPYSFPLTQTTATKLLQSDIKTFTSCVSNYVKDSVKLNDNQFGALSSWAFNVGCGNIQTSSLIKRLNAGENPNTVAAQELPKWKYAGGKVLPGLVRRRKAEVALFKKPSSVQAHPPKC"
recorded_value = "good activity"

